System: HT29 colon
Assay: NCI-60 one-dose screen, 48 h (100 = growth as untreated, 0 = no growth, -100 = all killed)
Conditions: 10 µM
About 83,000 compounds went through this panel and 20% of them were active in at least one assay; those are over-represented in the sample as a whole.
Binary call on growth with cut-off 80%: strictly below means Y, and equality or higher means N.

Find out if reported growth for CCOC(=O)C1=C(N)N(c2ccc(C)cc2)C2=C(C(=O)CC(C)(C)C2)C1c1ccccc1Br (stereo unspecified) is less than 80%
Y

----------
System: MDA-MB-468 breast
Experiment: NCI-60 one-dose screen, 48 h
Conditions: 10 µM unless noted
This is part of a sample that, as a whole, favours compounds with a hit. Of some 83,000 tested, about 20% had one in any assay. Activity calls are given as the source filed them. The calls were made as follows: active = growth percent below 10; inactive = the rest.
Please state which outcome applies, choosing from YES for active, NO for inactive

Consider the worked cases shown below.
> print(dat)
                                    compound       study.target  answer.label
 1  CC(=O)[C@H]1CC[C@H]2[C@@H]3CCC4=CC(=O)C=C[C@]4(C)[C@H]3CC[C@]12C  MDA-MB-468 breast            NO
 2  CCN(CC)CCCC(C)Nc1c2ccc(Cl)cc2nc2cc(OC)c(OC)cc12 (configuration not stated)  MDA-MB-468 breast           YES
 3  CCc1ccc(/C=C/c2ccc(O)c3ncccc23)[n+](C)c1  MDA-MB-468 breast            NO
 4  COc1cccc(/C=N/NC(=O)c2cnn3c2NC(c2ccccc2)C3)c1Oc1ccccc1 (configuration not stated)  MDA-MB-468 breast            NO
 5  Nc1ccc(N=Nc2ccc(S(=O)(=O)O)cc2)c2ccccc12  MDA-MB-468 breast            NO
 6  CC1(C)C(=O)/C(=C\c2ccco2)C[C@]2(C)[C@H]3CC=C4[C@@H]5C[C@](C)(C(=O)O)CC[C@]5(C)CC[C@@]4(C)[C@]3(C)CC[C@@H]12  MDA-MB-468 breast           YES
 7  Cc1nc2ncc(-c3ccc4ncnc(NCc5ccccc5)c4c3)cc2[nH]1  MDA-MB-468 breast            NO
 8  CCN1CCN(Cc2ccc(NC(=O)Nc3cccc(-n4ccc5c(NC(=O)c6ccccc6)nccc54)c3)cc2C(F)(F)F)CC1  MDA-MB-468 breast            NO
 9  C#CCO[C@H]1CC(CC#C)(CC#C)C(=O)[C@@H]2[C@H]1[C@H]1C[C@@H]3[C@@]4(C)CCC[C@@](C)(C(=O)OC)[C@@H]4CC[C@@]23C=C1C(C)C  MDA-MB-468 breast            NO
10  CC(=O)OCC1OC(OCC2OC(OC(C)=O)C(OC(C)=O)C(OC(C)=O)C2OC(C)=O)C(OC(C)=O)C(OC(C)=O)C1OC(C)=O (configuration not stated)  MDA-MB-468 breast            NO

// return assay outcome for `CCN(CCCNc1cc2c(c(N)c1S(=O)(=O)O)C(=O)c1ccccc1C2=O)c1ccccc1`
NO
